biological target: delta opioid receptor (NG108-15 cell membranes) (Mus musculus); construct: NG108-15 cell membranes were purchased from Applied Cell Sciences (Rockville, Md.); host or cells: NG108-15 cell membranes (purchased); test: [35S]GTPγS binding assay in NG108-15 cell membranes (delta opioid); format: biochemical; settings: NG108-15 cell membranes, agonist-stimulated [35S]GTPγS binding; read-out: DOR GTPγS EC50
Sequence (P32300 whole entry): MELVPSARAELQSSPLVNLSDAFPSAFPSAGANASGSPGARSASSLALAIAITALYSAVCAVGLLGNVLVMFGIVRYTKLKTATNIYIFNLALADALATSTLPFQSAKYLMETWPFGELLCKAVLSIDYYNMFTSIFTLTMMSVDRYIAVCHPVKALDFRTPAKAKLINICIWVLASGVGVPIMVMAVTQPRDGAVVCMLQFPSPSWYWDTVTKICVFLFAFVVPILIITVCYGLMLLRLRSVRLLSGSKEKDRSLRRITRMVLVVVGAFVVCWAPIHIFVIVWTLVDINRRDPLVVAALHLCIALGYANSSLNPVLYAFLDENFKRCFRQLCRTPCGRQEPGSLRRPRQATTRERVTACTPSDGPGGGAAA
Measured EC50, listed per entry.
measured-property: EC50

c1ccc2c(c1)Oc1cc(-c3nnn[nH]3)ccc1C2=C1CC2CCC(C1)N2 [Cpd 80] ... 226 nM
COc1cccc2c1Oc1cc(-c3nnn[nH]3)ccc1C2=C1CC2CCC(C1)N2 [Cpd 82] ... 88.4 nM
COc1cccc2c1Oc1cc(-c3cccnc3)ccc1C2=C1CC2CCC(C1)N2 [Cpd 71] ... 1940 nM
O=c1[nH]c(-c2ccc3c(c2)Oc2ccccc2C3=C2CC3CCC(C2)N3)ns1 [Cpd 101] ... 281 nM
O=C(NCc1cccc(F)c1)c1ccc2c(c1)Oc1ccccc1C2=C1CC2CCC(C1)N2 [Cpd 11] ... 209 nM
CCN(CC)C(=N)c1ccc2c(c1)Oc1ccccc1C2=C1CC2CCC(C1)N2 [Cpd 126] ... > 10000 nM
COc1cccc2c1Oc1cc(-c3ccccc3NC(C)=O)ccc1C2=C1CC2CCC(C1)N2 [Cpd 108] ... 117 nM
Oc1cccc2c1Oc1cc(-c3cnc4ccccc4c3)ccc1C2=C1CC2CCC(C1)N2 [Cpd 109] ... 94.2 nM
Cc1cccc(C)c1OCC(C)NC(=O)c1ccc2c(c1)Oc1ccccc1C2=C1CC2CCC(C1)N2 (centres unmarked) [Cpd 13] ... 641 nM
O=c1[nH]c(-c2ccc3c(c2)Oc2ccccc2C3=C2CC3CCC(C2)N3)no1 [Cpd 92] ... 102 nM
Oc1cccc2c1Oc1cc(-c3nnn[nH]3)ccc1C2=C1CC2CCC(C1)N2 [Cpd 90] ... 0.7 nM
O=c1[nH]c(-c2ccc3c(c2)Oc2ccccc2C3=C2CC3CCC(C2)N3)no1 [Cpd 91] ... 72.2 nM
S=c1[nH]c(-c2ccc3c(c2)Oc2ccccc2C3=C2CC3CCC(C2)N3)no1 [Cpd 93] ... 631 nM
S=c1[nH]c(-c2ccc3c(c2)Oc2ccccc2C3=C2CC3CCC(C2)N3)no1 [Cpd 94] ... 126 nM

###

target: mu opioid receptor (Rattus norvegicus, UniProt P33535); assay: Rat brain mu opioid receptor binding assay ([3H]DAMGO); conditions: MOR Ki, Rat mu opioid receptor binding constant; rat forebrain membranes, ~0.8 nM [3H]DAMGO
Sequence (P33535 whole entry): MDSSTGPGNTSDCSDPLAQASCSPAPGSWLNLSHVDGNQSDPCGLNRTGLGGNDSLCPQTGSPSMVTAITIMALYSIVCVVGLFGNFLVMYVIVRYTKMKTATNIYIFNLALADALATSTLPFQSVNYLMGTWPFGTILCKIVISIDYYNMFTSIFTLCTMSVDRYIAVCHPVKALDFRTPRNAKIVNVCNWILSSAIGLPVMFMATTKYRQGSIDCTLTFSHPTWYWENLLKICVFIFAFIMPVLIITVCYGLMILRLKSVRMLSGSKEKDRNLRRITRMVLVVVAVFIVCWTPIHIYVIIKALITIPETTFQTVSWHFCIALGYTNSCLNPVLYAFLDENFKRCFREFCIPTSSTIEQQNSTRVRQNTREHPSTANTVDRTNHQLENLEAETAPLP
// reported log10 Ki for each item listed
measured-property: log10 Ki (log10 of the value in µM)

c1ccc2c(c1)Sc1cc(-c3nnn[nH]3)ccc1C2=C1C[C@H]2CC[C@@H](C1)N2 (single isomer, unassigned) [Cpd 103] ... -0.48
COc1cccc2c1Oc1cc(Br)ccc1C2=C1CC2CCC(C1)N2 ... 0.68
CC(C)C[C@H](CO)NC(=O)c1ccc2c(c1)Oc1ccccc1C2=C1CC2CCC(C1)N2 ... 0.20
c1ccc2c(c1)Sc1cc(-c3nnn[nH]3)ccc1C2=C1C[C@H]2CC[C@@H](C1)N2 (single isomer, unassigned) [Cpd 102] ... 0.44
Cn1ccc(-c2ccc3c(c2)Oc2ccccc2C3=C2CC3CCC(C2)N3)n1 ... 0.42
O=C(c1ccc2c(c1)Oc1ccccc1C2=C1CC2CCC(C1)N2)N1CCC(O)C1 (single isomer, unassigned) [Cpd 70] ... 0.22
CN(C(=O)c1ccc2c(c1)Oc1ccccc1C2=C1CC2CCC(C1)N2)c1ccc(F)cc1 ... -0.03
OCc1cccc(-c2ccc3c(c2)Oc2ccccc2C3=C2CC3CCC(C2)N3)c1 ... 0.55
